Provide the recorded IC50 for the entries that follow.

// returns IC50 for O=C(Nc1ccc(-n2ccnc2)cc1)C(c1ccccc1)S(=O)(=O)O (centres undefined) with Tyrosine-protein phosphatase non-receptor type 11 (Homo sapiens); value = > 100 µM

// returns IC50 for O=C(Nc1cc(C(F)(F)F)cc(C(F)(F)F)c1)C(c1ccccc1)S(=O)(=O)O (centres undefined) with Tyrosine-protein phosphatase non-receptor type 11 (Homo sapiens); value = > 200 µM

// returns IC50 for Cc1c(Br)cc(NC(=O)C(c2ccccc2)S(=O)(=O)O)cc1Br (centres undefined) with Tyrosine-protein phosphatase non-receptor type 11 (Homo sapiens); value = > 200 µM

// returns IC50 for O=C(Nc1nc2ccc([N+](=O)[O-])cc2s1)C(c1ccccc1)S(=O)(=O)O (centres undefined) with Tyrosine-protein phosphatase non-receptor type 11 (Homo sapiens); value = > 100 µM
